testSystem: Bromodomain-containing protein 2 (Homo sapiens, UniProt P25440)
Sequence (P25440 whole entry): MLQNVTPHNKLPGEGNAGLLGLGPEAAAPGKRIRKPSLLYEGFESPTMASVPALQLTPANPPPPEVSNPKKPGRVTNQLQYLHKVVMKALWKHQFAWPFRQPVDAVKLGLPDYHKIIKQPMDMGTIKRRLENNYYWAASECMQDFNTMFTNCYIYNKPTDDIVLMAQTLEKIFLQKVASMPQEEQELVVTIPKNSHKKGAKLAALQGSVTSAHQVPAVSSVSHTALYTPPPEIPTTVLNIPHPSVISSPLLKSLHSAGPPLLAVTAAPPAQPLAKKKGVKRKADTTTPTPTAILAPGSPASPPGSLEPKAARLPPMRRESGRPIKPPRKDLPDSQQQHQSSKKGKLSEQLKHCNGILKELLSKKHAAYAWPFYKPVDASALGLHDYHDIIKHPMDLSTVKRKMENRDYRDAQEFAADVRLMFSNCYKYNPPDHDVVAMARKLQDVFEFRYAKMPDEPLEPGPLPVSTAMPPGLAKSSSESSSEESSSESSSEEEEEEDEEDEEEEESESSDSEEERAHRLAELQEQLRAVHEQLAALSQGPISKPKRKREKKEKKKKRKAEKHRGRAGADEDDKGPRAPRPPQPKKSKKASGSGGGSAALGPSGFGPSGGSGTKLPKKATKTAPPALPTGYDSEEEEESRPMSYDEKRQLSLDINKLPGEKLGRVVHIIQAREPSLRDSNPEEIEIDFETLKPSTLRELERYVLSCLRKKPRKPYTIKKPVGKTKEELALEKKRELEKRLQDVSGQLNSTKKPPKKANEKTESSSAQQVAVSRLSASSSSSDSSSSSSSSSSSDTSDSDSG
testProtocol: Binding affinity to His-tagged BRD2 bromodomain 1 (unknown origin) by SPR assay
Assay type: single protein
measuredParameter: Kd
Your reply should be a number followed by the unit it is expressed in.

[
  {
    "smi": "CC(=O)N1c2ccc(-c3cc[nH]c3)cc2[C@H](NC(=O)OC(C)C)C[C@@H]1C",
    "testSystem": "Bromodomain-containing protein 2 (Homo sapiens, UniProt P25440)",
    "Kd": "104 nM"
  },
  {
    "smi": "CC(=O)N1c2ccc(-c3ccc[nH]3)cc2[C@H](NC(=O)OC(C)C)C[C@@H]1C",
    "testSystem": "Bromodomain-containing protein 2 (Homo sapiens, UniProt P25440)",
    "Kd": "99 nM"
  },
  {
    "smi": "CC(=O)N1c2ccc(-c3cccs3)cc2[C@H](NC(=O)OC(C)C)C[C@@H]1C",
    "testSystem": "Bromodomain-containing protein 2 (Homo sapiens, UniProt P25440)",
    "Kd": "66 nM"
  }
]

Q: Form field: reported Kd of CC(=O)N1c2ccc(-c3ccoc3)cc2[C@H](NC(=O)OC(C)C)C[C@@H]1C
A: 245 nM

Q: Form field: reported Kd of CC(=O)N1c2ccc(-c3ccsc3)cc2[C@H](NC(=O)OC(C)C)C[C@@H]1C
A: 105 nM
